Test system: Ipomoea hederacea (IPOHE)
Experiment: Post-emergence efficacy, glasshouse
Assay type: in vivo
Conditions: Ipomoea hederacea, post-emergence, 312 h; Application Rate 1000 g/Ha; evaluated after 13 days; 100=total damage to plant, 0=no damage to plant; read-out: Control of weed species after post-emergence application, IPOHE
Below is a list of entries, each paired with its recorded pest or weed control at 1000 g/ha value.
Quick reminder: number only, in %, skip the unit.

>  <COMPOUND>
CCP(=O)([O-])c1c[n+](C)nc2ccccc12 [Compound A48]

>  <MEASUREMENT UNIT>
%

>  <pest or weed control at 1000 g/ha>
70

$$$$
>  <COMPOUND>
Cn1nnnc1[N-]C(=O)c1c[n+](C)nc2ccccc12 [Compound A16]

>  <MEASUREMENT UNIT>
%

>  <pest or weed control at 1000 g/ha>
40

$$$$
>  <COMPOUND>
C[n+]1cc(SCC(=O)O)c2ccccc2n1 [Compound A57]

>  <MEASUREMENT UNIT>
%

>  <pest or weed control at 1000 g/ha>
10

$$$$
>  <COMPOUND>
C[n+]1cc(C(=O)[N-]S(=O)(=O)CCC(F)(F)F)c2ccccc2n1 [Compound A43]

>  <MEASUREMENT UNIT>
%

>  <pest or weed control at 1000 g/ha>
80

$$$$
>  <COMPOUND>
CN(C)S(=O)(=O)[N-]C(=O)c1c[n+](C)nc2ccccc12 [Compound A11]

>  <MEASUREMENT UNIT>
%

>  <pest or weed control at 1000 g/ha>
60

$$$$

Q. Consider the compound CC[n+]1cc(P(=O)([O-])OC)c2ccccc2n1 [Compound A65] . State its measured pest or weed control at 1000 g/ha.
A. 70

Q. Quickly give me recorded pest or weed control at 1000 g/ha for C[n+]1cc(C(=O)[O-])c2ccccc2n1 [Compound A1]
A. 70

Q. Could you please provide reported pest or weed control at 1000 g/ha for C[n+]1cc(C(=O)[N-]S(C)(=O)=O)c2ccccc2n1 [Compound A5] ? Thanks!
A. 90

Q. Provide measured pest or weed control at 1000 g/ha value, entry: CC[n+]1cc(C(=O)[N-]S(C)(=O)=O)c2ccccc2n1 [Compound A22]
A. 90

Q. // fetch pest or weed control at 1000 g/ha given entry CCOP(=O)(O)c1c[n+](CCO)nc2ccccc12 [Compound A71]
A. 80

Q. Give reported pest or weed control at 1000 g/ha value for COP(=O)(O)Cc1c[n+](C)nc2ccccc12 [Compound A53]
A. 100

Q. Tell us which pest or weed control at 1000 g/ha value is on record for CS(=O)(=O)[N-]C(=O)c1c[n+](CC(F)F)nc2ccccc12 [Compound A14]
A. 40

Q. Provide only the value of recorded pest or weed control at 1000 g/ha for C[n+]1cc(P(C)(=O)O)c2ccccc2n1 [Compound A31]
A. 90

Q. Input CC(C)CP(=O)([O-])c1c[n+](C)nc2ccccc12 [Compound A45] , output reported pest or weed control at 1000 g/ha.
A. 90

Q. # return recorded pest or weed control at 1000 g/ha for input O=P([O-])(O)c1c[n+](CCO)nc2ccccc12 [Compound A67]
A. 30

Q. Respond only with pest or weed control at 1000 g/ha recorded for CONC(=O)c1c[n+](C)nc2ccccc12 [Compound A4, 2,2,2-trifluoroacetate]
A. 20

Q. Specify measured pest or weed control at 1000 g/ha for CCS(=O)(=O)[N-]C(=O)c1c[n+](C)nc2ccccc12 [Compound A37] .
A. 80

Q. Determine its reported pest or weed control at 1000 g/ha: COP(=O)(OC)c1c[n+](CCOS(=O)(=O)[O-])nc2ccccc12 [Compound A70]
A. 30

Q. Quickly give me recorded pest or weed control at 1000 g/ha for C[n+]1cc(C(=O)[N-]S(=O)(=O)c2ccc(F)cc2)c2ccccc2n1 [Compound A38]
A. 20

Q. Output pest or weed control at 1000 g/ha of C[n+]1cc(C(=O)[N-]c2nnn[nH]2)c2ccccc2n1 [Compound A17]
A. 40

Q. Determine from records and report pest or weed control at 1000 g/ha for O=C(O)c1c[n+](CCOS(=O)(=O)[O-])nc2ccccc12 [Compound A28]
A. 20

Q. Entry COCC[n+]1cc(C(=O)[N-]S(C)(=O)=O)c2ccccc2n1 [Compound A24] needs its pest or weed control at 1000 g/ha filled in; supply it.
A. 60

Q. In one line, give reported pest or weed control at 1000 g/ha of the entry CS(=O)(=O)[N-]C(=O)c1c[n+](CCO)nc2ccccc12 [Compound A21] .
A. 80

Q. Give recorded pest or weed control at 1000 g/ha. C[n+]1cc(C(=O)[N-]S(=O)(=O)c2ccc(Cl)s2)c2ccccc2n1 [Compound A39]
A. 30

---

Test system: Ipomoea hederacea (IPOHE)
Experiment: Post-emergence efficacy, glasshouse
Type: in vivo
Conditions: Ipomoea hederacea, post-emergence, 312 h; Application Rate 1000 g/Ha; evaluated after 13 days; 100=total damage to plant, 0=no damage to plant; read-out: Control of weed species after post-emergence application, IPOHE
# reported pest or weed control at 1000 g/ha; entries follow
Could you give me the number in %? Just the number is fine.

Q. Quote Ipomoea hederacea (IPOHE) pest or weed control at 1000 g/ha for entry C[n+]1cc(OCC(=O)O)c2ccccc2n1 [Compound A58] .
A. 20

Q. Provide pest or weed control at 1000 g/ha, recorded with Ipomoea hederacea (IPOHE), of C[n+]1cc(P(=O)([O-])O)c2ccccc2n1 [Compound A78]
A. 10

Q. Quote Ipomoea hederacea (IPOHE) pest or weed control at 1000 g/ha for entry Cn1ncnc1NC(=O)c1c[n+](C)nc2ccccc12 [Compound A25] .
A. 30

---

Tested on: Setaria faberi (SETFA)
Assay: Post-emergence efficacy, glasshouse
Assay type: in vivo
Settings: Setaria faberi, post-emergence, 312 h; Application Rate 1000 g/Ha; evaluated after 13 days; 100=total damage to plant, 0=no damage to plant; read-out: Control of weed species after post-emergence application, SETFA
In this section we review reported pest or weed control at 1000 g/ha values for a set of molecules.
Reply numerically in %, unit not repeated.

>  <MOLECULE>
Cn1nnnc1[N-]C(=O)c1c[n+](C)nc2ccccc12

>  <pest or weed control at 1000 g/ha, %>
10

$$$$
>  <MOLECULE>
COP(=O)([O-])c1c[n+](CCO)nc2ccccc12

>  <pest or weed control at 1000 g/ha, %>
90

$$$$
>  <MOLECULE>
C[n+]1cc(C(=O)O)c2ccccc2n1 [Compound A3]

>  <pest or weed control at 1000 g/ha, %>
10

$$$$
>  <MOLECULE>
CNS(=O)(=O)[N-]C(=O)c1c[n+](C)nc2ccccc12

>  <pest or weed control at 1000 g/ha, %>
50

$$$$
>  <MOLECULE>
C[n+]1nc2ccccc2c(C(=O)[O-])c1-c1ccccc1

>  <pest or weed control at 1000 g/ha, %>
70

$$$$

Q. // output pest or weed control at 1000 g/ha; input `C[n+]1cc(C(=O)[N-]c2nnn[nH]2)c2ccccc2n1` ; system Setaria faberi (SETFA)
A. 10

Q. Name the value of pest or weed control at 1000 g/ha reported for `C[n+]1cc(C(=O)[N-]S(=O)(=O)C(F)(F)F)c2ccccc2n1` when tested on Setaria faberi (SETFA).
A. 20

Q. GET pest or weed control at 1000 g/ha where system = Setaria faberi (SETFA) and item = `C[n+]1cc(C(=O)[N-]S(=O)(=O)c2ccc(F)cc2)c2ccccc2n1`
A. 40

Q. Under Setaria faberi (SETFA): report pest or weed control at 1000 g/ha of `COC(=O)c1c[n+](C)nc2ccccc12` .
A. 60

Q. Report value only: pest or weed control at 1000 g/ha, Setaria faberi (SETFA), `C[n+]1cc(CCC(=O)O)c2ccccc2n1`
A. 30

Q. Please report pest or weed control at 1000 g/ha with Setaria faberi (SETFA) for item `C[n+]1cc(OCC(=O)O)c2ccccc2n1` .
A. 60

Q. System Setaria faberi (SETFA). Read-out pest or weed control at 1000 g/ha. Item `C[n+]1cc(SCC(=O)O)c2ccccc2n1` . Report value.
A. 30

Q. Given C[n+]1cc(P(C)(=O)O)c2ccccc2n1 [Compound A7] , report its pest or weed control at 1000 g/ha on Setaria faberi (SETFA).
A. 70

Q. Consider the molecule `C[n+]1cc(P(=O)([O-])O)c2ccccc2n1` tested on Setaria faberi (SETFA); state its pest or weed control at 1000 g/ha.
A. 40

Q. Would you please give the reported pest or weed control at 1000 g/ha of `C[n+]1cc(C(=O)[N-]S(=O)(=O)c2ccccc2)c2ccccc2n1` with Setaria faberi (SETFA)?
A. 10

Q. Find pest or weed control at 1000 g/ha for `CN(C)S(=O)(=O)[N-]C(=O)c1c[n+](C)nc2ccccc12` on Setaria faberi (SETFA) and write it down.
A. 50

Q. Recall the reported pest or weed control at 1000 g/ha of `CC[n+]1cc(P(=O)([O-])O)c2ccccc2n1` when tested on Setaria faberi (SETFA).
A. 70

Q. Name the recorded pest or weed control at 1000 g/ha of `O=C(O)c1c[n+](CCOS(=O)(=O)[O-])nc2ccccc12` , assay system Setaria faberi (SETFA).
A. 40

Q. Specify pest or weed control at 1000 g/ha for `O=C(O)CC[n+]1cc(C(=O)[N-]S(=O)(=O)C2CC2)c2ccccc2n1` , system Setaria faberi (SETFA).
A. 0

Q. Would you please give the reported pest or weed control at 1000 g/ha of `COP(=O)([O-])c1c[n+](CC(=O)NS(C)(=O)=O)nc2ccccc12` with Setaria faberi (SETFA)?
A. 60
